study system: Gal(b1-4)GlcNAc(b1-3)Gal(b1-4)GlcNAc(b1-3)Gal(b1-4)GlcNAc(b1-2)Man(a1-3)[Gal(b1-4)GlcNAc(b1-3)Gal(b1-4)GlcNAc(b1-3)Gal(b1-4)GlcNAc(b1-2)Man(a1-6)]Man(b1-4)GlcNAc(b1-4)[Fuc(a1-6)]GlcNAc
experiment: glycan array binding signal (z-score within array); higher = stronger binding
test conditions: glycan notation: IUPAC condensed, linker removed
The sample as a whole holds a higher share of the strongest signals than the screen did.
Measured glycan array binding signal (z-score) by item
Give the figure only, with no unit attached.

# return recorded glycan array binding signal (z-score) for entry Dectin2 (Homo sapiens), Q6EIG7 (protein) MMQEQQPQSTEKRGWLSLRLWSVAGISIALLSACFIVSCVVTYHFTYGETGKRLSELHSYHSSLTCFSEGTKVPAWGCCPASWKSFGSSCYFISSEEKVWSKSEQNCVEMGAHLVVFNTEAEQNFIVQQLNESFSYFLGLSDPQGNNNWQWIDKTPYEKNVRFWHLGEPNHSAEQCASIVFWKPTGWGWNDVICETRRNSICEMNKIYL
-0.086

# return recorded glycan array binding signal (z-score) for entry BTL (Bryothamnion triquetrum) (protein) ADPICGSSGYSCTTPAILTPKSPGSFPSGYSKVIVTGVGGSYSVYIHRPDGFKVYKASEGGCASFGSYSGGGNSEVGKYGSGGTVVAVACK
5.89
